Label true (1) when melting point is strictly below 70 °C; otherwise label false (0).

COCc1nn2c(CN3CC(CC(C)(F)F)CC3=O)c(C(F)(F)F)nc2s1 (single isomer, unassigned; (-)) [Compound 3]    true (1)
COCc1nn2c(CN3CC(CC(F)(F)Cl)CC3=O)c(C(F)F)nc2s1 (single isomer, unassigned; (+)) [Compound 23]    false (0)
COCc1nn2c(CN3C[C@H](CC(F)(F)F)CC3=O)c(C(F)(F)F)nc2s1 [Compound 12]    false (0)
O=C1C[C@H](CC(F)(F)Cl)CN1Cc1c(C(F)(F)F)nc2sc(CO)nn12 [Compound 8]    false (0)

Note: attention shifts to another entry.
QUERY: Hi there! Is melting point for COCc1nn2c(CN3CC(CCC(F)(F)F)CC3=O)c(Cl)nc2s1 (single isomer, unassigned; (+)) [Compound 27] below 70 °C, do you know?
RESULT: true (1)
